Just for reference, patent US9334263B2 is where these values come from.

For each of the compounds below, state its IC50.
# target or test system: PDGFRA D842V (Homo sapiens, UniProt P16234, D842V)
# Sequence (P16234 24-1089 D842V): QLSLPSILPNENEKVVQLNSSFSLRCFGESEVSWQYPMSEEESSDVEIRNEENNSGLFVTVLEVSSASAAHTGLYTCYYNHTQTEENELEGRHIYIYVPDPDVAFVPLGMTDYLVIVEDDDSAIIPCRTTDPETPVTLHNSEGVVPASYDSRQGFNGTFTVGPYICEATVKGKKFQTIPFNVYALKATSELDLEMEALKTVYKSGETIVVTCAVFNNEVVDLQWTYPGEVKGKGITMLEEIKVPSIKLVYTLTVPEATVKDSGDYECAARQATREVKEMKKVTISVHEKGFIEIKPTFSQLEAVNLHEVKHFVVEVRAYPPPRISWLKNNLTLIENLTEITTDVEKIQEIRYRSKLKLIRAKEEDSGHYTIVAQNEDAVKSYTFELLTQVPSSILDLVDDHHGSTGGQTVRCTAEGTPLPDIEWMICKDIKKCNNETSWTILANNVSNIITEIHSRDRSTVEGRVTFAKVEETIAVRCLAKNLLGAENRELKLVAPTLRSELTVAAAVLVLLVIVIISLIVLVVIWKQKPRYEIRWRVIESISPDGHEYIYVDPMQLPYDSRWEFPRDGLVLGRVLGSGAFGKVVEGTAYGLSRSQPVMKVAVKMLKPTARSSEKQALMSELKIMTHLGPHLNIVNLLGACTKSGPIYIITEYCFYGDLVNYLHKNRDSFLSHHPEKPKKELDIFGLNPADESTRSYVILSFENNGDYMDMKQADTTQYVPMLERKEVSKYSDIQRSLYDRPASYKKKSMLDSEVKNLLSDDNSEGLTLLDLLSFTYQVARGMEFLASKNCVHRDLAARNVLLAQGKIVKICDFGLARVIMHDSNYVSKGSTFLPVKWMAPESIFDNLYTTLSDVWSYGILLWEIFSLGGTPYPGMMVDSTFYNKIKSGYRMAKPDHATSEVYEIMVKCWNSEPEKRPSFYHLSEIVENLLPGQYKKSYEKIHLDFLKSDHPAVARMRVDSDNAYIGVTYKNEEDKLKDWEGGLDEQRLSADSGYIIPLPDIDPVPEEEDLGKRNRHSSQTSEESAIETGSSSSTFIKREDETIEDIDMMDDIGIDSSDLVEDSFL
# test details: PDGFRA D842V assay at Km (Caliper electrophoretic mobility shift)
# study conditions: 15 uM ATP, 25 C, 90 minutes; read-out: PDFGRA D842V

Report IC50, nothing else, for this compound: OC[C@H](O)c1ccc(Nc2ncnc(N3CCN(c4ncc(Cc5ccccc5)cn4)CC3)n2)cc1 (single isomer, unassigned) 1.01 to 10 nM

Report IC50 for c1ccc(Cc2cnc(N3CCN(c4ncnc(Nc5cnn(C[C@H]6CNCCO6)c5)n4)CC3)nc2)cc1 < 1 nM

Look up and report measured IC50 for this entry: CN1CCC(Cn2cc(Nc3ncnc(N4CCN(c5ncc(Cc6ccccc6)cn5)CC4)n3)cn2)CC1 < 1 nM

Hello, please tell me recorded IC50 for this one: OCc1cccc(Nc2ncnc(N3CCN(c4ncc(Cc5ccccc5)cn4)CC3)n2)c1 < 1 nM

Supply recorded IC50 for C[C@H](O)Cn1cc(Nc2ncnc(N3CCN(c4ncc(Sc5ccc(F)cc5)cn4)CC3)n2)cn1 here. < 1 nM

Return reported IC50. Input compound: Cn1cc(Nc2ncnc(N3CCN(c4ncc(Cc5ccccc5)cn4)CC3)n2)cn1 1.01 to 10 nM

Query IC50 for c1ccc(Cc2cnc(N3CCN(c4ncnc(Nc5cnn([C@H]6CCNC6)c5)n4)CC3)nc2)cc1 < 1 nM

----------
So I've got a bunch of molecules here, and I need their pIC50 values.
# target or test system: D816V Kit (Homo sapiens, UniProt P10721, D816V)
# Construct: purchased Carna Bioscience 08-156
# Sequence (P10721 26-976 D816V): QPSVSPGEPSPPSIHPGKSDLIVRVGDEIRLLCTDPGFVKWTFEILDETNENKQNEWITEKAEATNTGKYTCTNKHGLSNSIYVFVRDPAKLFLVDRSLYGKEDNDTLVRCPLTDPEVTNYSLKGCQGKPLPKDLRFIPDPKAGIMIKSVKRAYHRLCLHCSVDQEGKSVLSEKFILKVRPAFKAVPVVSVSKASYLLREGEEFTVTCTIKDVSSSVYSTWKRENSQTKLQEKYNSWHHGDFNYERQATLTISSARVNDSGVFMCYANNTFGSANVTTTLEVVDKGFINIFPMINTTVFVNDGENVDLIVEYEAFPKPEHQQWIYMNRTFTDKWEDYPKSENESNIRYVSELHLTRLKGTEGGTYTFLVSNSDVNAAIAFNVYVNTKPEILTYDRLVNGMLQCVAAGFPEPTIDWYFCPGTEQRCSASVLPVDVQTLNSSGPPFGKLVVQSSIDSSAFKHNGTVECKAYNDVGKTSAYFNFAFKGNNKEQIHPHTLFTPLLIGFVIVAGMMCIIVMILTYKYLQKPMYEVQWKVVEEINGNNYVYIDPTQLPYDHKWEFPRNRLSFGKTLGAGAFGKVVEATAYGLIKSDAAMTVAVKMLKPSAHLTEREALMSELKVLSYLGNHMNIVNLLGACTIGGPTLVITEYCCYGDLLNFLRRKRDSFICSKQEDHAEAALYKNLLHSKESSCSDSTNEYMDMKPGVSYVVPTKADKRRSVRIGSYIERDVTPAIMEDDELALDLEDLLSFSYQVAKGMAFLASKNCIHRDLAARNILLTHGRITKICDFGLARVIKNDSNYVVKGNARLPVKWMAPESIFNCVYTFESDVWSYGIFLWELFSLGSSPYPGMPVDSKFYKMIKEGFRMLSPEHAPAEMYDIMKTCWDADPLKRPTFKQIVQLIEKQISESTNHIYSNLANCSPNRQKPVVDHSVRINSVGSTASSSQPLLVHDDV
# test details: Kit D816V assay at Km (Caliper electrophoretic mobility shift)
# Format: biochemical
# study conditions: 15 uM ATP, 25 C, 90 minutes
pIC50: −log10 of the molar value.

Give pIC50 for the following molecule: Cn1cc(Nc2ncnc(N3CCN(c4ncc([C@@](C)(O)c5ccc(F)cc5)cn4)CC3)n2)cn1 (single isomer, unassigned) > 9.00

Tell me measured pIC50 for C[C@@H](O)Cn1cc(Nc2ncnc(N3CCN(c4ncc(Cc5ccccc5)cn4)CC3)n2)cn1 please. 8.00 to 9.00

Please look at this molecule and report its pIC50: C[C@@H](c1ccccc1)c1cnc(N2CCN(c3ncnc(Nc4ccc(N5CCC[C@@H](O)C5)cc4)n3)CC2)nc1 > 9.00

Dear colleague, please send me the reported pIC50 for CS(=O)(=O)c1ccc(Nc2ncnc(N3CCN(c4ncc(Cc5ccccc5)c(O)n4)CC3)n2)cc1 when you can. 8.00 to 9.00

Provide only the value of recorded pIC50 for C=C(c1ccccc1)c1cnc(N2CCN(c3ncnc(Nc4cnn(C[C@@H]5CNCCO5)c4)n3)CC2)nc1 8.00 to 9.00

Determine its reported pIC50: Fc1ccccc1Cc1cnc(N2CCN(c3ncnc(Nc4cnn(C[C@@H]5CNCCO5)c4)n3)CC2)cn1 > 9.00

Return pIC50 (reported value) for this molecule: OCc1nc(N2CCN(c3ncnc(Nc4ccc5c(c4)CNCC5)n3)CC2)ncc1Cc1ccccc1 > 9.00

Return value of pIC50 for input COc1nc(N2CCN(c3ncnc(Nc4cnn(C[C@@H]5CNCCO5)c4)n3)CC2)ncc1Cc1ccccc1 , no commentary. 8.00 to 9.00

Tell me its pIC50 given CC1(C(O)c2ccc(Nc3ncnc(N4CCN(c5ncc(Cc6ccccc6)cn5)CC4)n3)cc2)COC1 (centres unmarked) as the entry. > 9.00

Given the molecule OC[C@@H](O)Cn1cc(Nc2ncnc(N3CCN(c4ncc(Cc5ccccc5)cn4)CC3)n2)cn1 , write its reported pIC50. > 9.00

Read the entry Fc1ccccc1Cc1cnc(N2CCN(c3ncnc(Nc4ccc5c(c4)CNCC5)n3)CC2)nc1 and write its reported pIC50. > 9.00

Identify pIC50 associated with the molecule Nc1nc(N2CCN(c3ncnc(Nc4cnn(CC5CNCCO5)c4)n3)CC2)ncc1Cl (centres unmarked) 7.00 to 8.00

Give pIC50 for the following molecule: Fc1cc(O[C@H]2CCCNC2)ccc1Nc1ncnc(N2CCN(c3ncc(Cc4ccccc4)cn3)CC2)n1 8.00 to 9.00

Determine its reported pIC50: CC(=O)Nc1cccc(Nc2ncnc(N3CCN(c4ncc(Cc5ccccc5)cn4)CC3)n2)c1 > 9.00

Please give the documented pIC50 of c1ccc(Cc2cnc(N3CCN(c4ncnc(Nc5ccc6c(c5)CN(C5CC5)CC6)n4)CC3)nc2)cc1 7.00 to 8.00

Identify the reported pIC50 for the following entry. Nc1nc(N2CCN(c3ncnc(Nc4ccc(N5CCC[C@@H](O)C5)cc4)n3)CC2)ncc1Cc1ccccc1 > 9.00

Supply reported pIC50 belonging to this molecule: CN1CCc2ccc(Nc3ncnc(N4CCN(c5ncc(Cc6ccccc6)cn5)CC4)n3)cc2C1 > 9.00

Output pIC50 of c1ccc(Cc2cnc(N3CCN(c4ncnc(Nc5ccc(N6CCNCC6)cc5)n4)CC3)nc2)cc1 > 9.00

# return recorded pIC50 for entry c1ccc(Cc2cnc(N3CCN(c4ncnc(Nc5ccc(OC[C@@H]6CCCN6)cc5)n4)CC3)nc2)cc1 > 9.00

Identify measured pIC50 associated with CC(=O)c1cccc(Nc2ncnc(N3CCN(c4ncc(Cc5ccccc5)cn4)CC3)n2)c1 8.00 to 9.00

Please report the measured pIC50 for OCCNc1ccc(Nc2ncnc(N3CCN(c4ncc(Cc5ccccc5)cn4)CC3)n2)cn1 8.00 to 9.00

Return pIC50 (reported value) for this molecule: OC[C@H](O)COc1cccc(Nc2ncnc(N3CCN(c4ncc(Cc5ccccc5)cn4)CC3)n2)c1 > 9.00

Determine its reported pIC50: CC(C)(O)c1ccc(Nc2ncnc(N3CCN(c4ncc([C@@](C)(N)c5ccc(F)cc5)cn4)CC3)n2)cc1 > 9.00

Let me know recorded pIC50 for NS(=O)(=O)c1ccc(Nc2ncnc(N3CCN(c4ncc(Cc5ccccc5)cn4)CC3)n2)cc1 , thanks. > 9.00

Could you please provide reported pIC50 for C[C@@]1(O)CCCN(c2ccc(Nc3ncnc(N4CCN(c5ncc(Cc6ccccc6)cn5)CC4)n3)cc2)C1 ? Thanks! 8.00 to 9.00

Name the recorded pIC50 of the molecule listed here: c1ccc(Cc2cnc(N3CCN(c4ncnc(Nc5ccc6c(c5)CNCCO6)n4)CC3)nc2)cc1 > 9.00

Using known records, supply pIC50 for Fc1cccc(Oc2cnc(N3CCN(c4ncnc(Nc5cnn(C[C@@H]6CNCCO6)c5)n4)CC3)nc2)c1 8.00 to 9.00

Look up and state reported pIC50 for COCCn1cc(Nc2ncnc(N3CCN(c4ncc(Cc5ccccc5)cn4)CC3)n2)cn1 > 9.00

Complete the entry with pIC50 for Cc1c(Nc2ncnc(N3CCN(c4ncc(Sc5ccccc5F)cn4)CC3)n2)cnn1CC(C)(C)O > 9.00
